biological target: T1, human IGF1R ectodomain (Homo sapiens, UniProt P08069); test: SPR; SEC-purified VHH monomers, 0.1-10 nM, over human IGF1R ectodomain amine-coupled to a CM5 chip (476 RU); 25°C, HBS-EP pH 7.4; 1:1 binding model; conditions: both partners purified
T1 construct: human IGF1R, ectodomain; source: bought: R&D Systems
T1 sequence (P08069 741-935): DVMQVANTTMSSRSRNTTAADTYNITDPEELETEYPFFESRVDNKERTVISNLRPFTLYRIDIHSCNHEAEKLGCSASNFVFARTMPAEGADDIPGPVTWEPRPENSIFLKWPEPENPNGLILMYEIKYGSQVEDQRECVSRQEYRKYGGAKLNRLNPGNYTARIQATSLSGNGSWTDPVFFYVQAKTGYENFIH
Let's look at some binders and their measured Kd.
Your answer is read as nM, so omit the unit and give the number.

Below, each entry is followed by its recorded Kd result.
IGF1R-5 VHH, humanized (VHH, as the VHH of m23 with FRs reverted to human IGHV3 germline; also called humanized IGF1R-5; source: E. coli TG1, periplasm (osmotic shock), purified (IMAC); periplasmic extract for protein A chromatography) VHH: QVQLVESGGGLVQPGGSLRLSCAASGRTIDNYAMAWSRQAPGKGLEFVATIDWGDGGTRYANSVKGRFTISRDNSKNTMYLQMNSLRAEDTAVYYCAMARQSRVNLDVARYDYWGQGTLVTVSS : 0.9
IGF1R-4 VHH, wild-type (VHH, anti-human IGF1R; bears Val59, Asp65 (Kabat); source: E. coli TG1, periplasm (osmotic shock), purified (IMAC)) VHH: QVKLEESGGGLVQAGGSLRLSCEVSGGTVSPTAMGWFRQAPGKEREFVGHITWSRGTTRVASSVKDRFTISRDSAKNTVYLQMNSLKSEDTAVYYCAASTFLRILPEESAYTYWGQGTQVTVSS : 0.3
IGF1R-4 VHH, humanized (VHH, as the VHH of m18 with FRs reverted to human IGHV3 germline; also called humanized IGF1R-4; source: E. coli TG1, periplasm (osmotic shock), purified (IMAC); periplasmic extract for protein A chromatography) VHH: QVQLVESGGGLVQPGGSLRLSCAVSGGTVSPTAMGWFRQAPGKGLEFVGHITWSRGTTRYASSVKGRFTISRDNSKNTVYLQMNSLRAEDTAVYYCAASTFLRILPEESAYTYWGQGTLVTVSS : 0.4

Lookup: Fill blank: measured Kd of the binder IGF1R-5 VHH, wild-type (VHH, anti-human IGF1R; bears Ala57, Asn82b (Kabat); source: E. coli TG1, periplasm (osmotic shock), purified (IMAC)) VHH: QVKLEESGGGLVQAGGSLRLSCAASGRTIDNYAMAWSRQAPGKDREFVATIDWGDGGARYANSVKGRFTISRDNAKGTMYLQMNNLEPEDTAVYSCAMARQSRVNLDVARYDYWGQGTQVTVSS is ____.
Found: 0.8
